Recorded PBM binding z-score, one value per entry.
- Tested on: THRa:RXRa (NR concentration 90 nM, RXRa partner concentration 90 nM)
- assay-text: PBM binding z-score (relative to random genomic background probes); higher = stronger binding; sequences stand for … in GC…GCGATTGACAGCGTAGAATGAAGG
Number, no unit, nothing else.

// solved cases for PBM binding z-score follow
>  <residues>
GGAACGAGGGCAAAGTTCATAGCATCTGTCGACG

>  <PBM binding z-score>
3.03

$$$$
>  <residues>
CAAACTAGGTCAAGAGGTCAAAGTTCGCTTCCCG

>  <PBM binding z-score>
4.67

$$$$
>  <residues>
TCGTGTAGGTTACGGGGGCATTCAGGGATGAAGA

>  <PBM binding z-score>
4.09

$$$$
>  <residues>
ACTAGTTGGTCAGCTGAGGTCACACCCAATTCGG

>  <PBM binding z-score>
5

$$$$
>  <residues>
TTACCAAGGTCAAAGGTCGTTGATGCACGCCTTG

>  <PBM binding z-score>
4.73

$$$$

Qu. For the sequence TAGCCTAGGTCATGGGCCAGTGTACCACGCGAAC , what PBM binding z-score is on record?
Ans. 3.13

Qu. For the sequence TGTATGAGGTTAAAGATCAGGGAACGTGGCGTCG , what PBM binding z-score is on record?
Ans. 2.84

Qu. For the sequence CCAACTAGGTCAAAGGACAGTGAAAGGCGACGTA , what PBM binding z-score is on record?
Ans. 2.4

Qu. For the sequence ATCAAAAGGTCGAGGTGAGTATAGAGAAAGGGAA , what PBM binding z-score is on record?
Ans. 3.11

Qu. For the sequence ACGCGGAGGACAAAGGTCAGAGCTACGCCAGTGA , what PBM binding z-score is on record?
Ans. 3.38

Qu. For the sequence TCTAGTTGGTCACGGAGGGCACACACGACGGGTA , what PBM binding z-score is on record?
Ans. 1.03
